Test: Assay C: metabolic stability in human liver microsomes (Human MST)
Type: in vitro ADME
Conditions: pooled human liver microsomes, pH 7.6, 1 μM compound, 37° C., read-out: Human MST t1/2
Experimental: Stability in human liver microsomes refers to the susceptibility of compounds to biotransformation in the context of selecting and/or designing drugs with favorable pharmacokinetic properties. The primary site of metabolism for many drugs is the liver. […] The metabolic degradation of the test compound is assayed at 37° C. with pooled human liver microsomes. […] The half-life (t1/2) is determined by the slope of the semi-logarithmic plot of the concentration-time profile.
Listed compounds paired with reported half-life at 1 μM

- chemical_string: "CCN(C(=O)c1cccc(Cl)c1-n1nccn1)[C@@H](C)CNc1ncc(C(F)(F)F)cn1"
  value_comparator: "="
  half-life at 1 μM [h]: 1.4
- chemical_string: "CCN(C(=O)c1nc(C)ccc1-n1nccn1)[C@@H](C)CNc1ncc(C(F)(F)F)cn1"
  value_comparator: "="
  half-life at 1 μM [h]: 1.67
- chemical_string: "CCN(C(=O)c1ccccc1-n1nccn1)[C@@H](C)CNc1ncc(C(F)(F)F)cn1"
  value_comparator: "="
  half-life at 1 μM [h]: 2
- chemical_string: "CCN(C(=O)c1cccc(F)c1-n1nccn1)[C@@H](C)CNc1ncc(C(F)(F)F)cn1"
  value_comparator: ">"
  half-life at 1 μM [h]: 2
- chemical_string: "CCN(C(=O)c1cnc(C)nc1-c1ccccc1)[C@@H](C)CNc1ncc(C(F)(F)F)cn1"
  value_comparator: ">"
  half-life at 1 μM [h]: 2
- chemical_string: "CCN(C(=O)c1cc(F)cc(F)c1-n1nccn1)[C@@H](C)CNc1ncc(C(F)(F)F)cn1"
  value_comparator: ">"
  half-life at 1 μM [h]: 2

Source of measurements: patent US9884854B2
